Assay: AUC (0 to 8 hrs) in rat at 3 mg/kg, po
Type: ADME, organism-based
Design: time < 8 hr, dose 3 mg/kg, route oral
Conditions: plasma
parameter: AUC(0-t) at 8 h (ng·h/mL)
Write the value in ng·h/mL as a bare number.

{"columns": ["moleculeSmiles", "unitString", "AUC(0-t) at 8 h"],
 "data": [
  ["COC(=O)N[C@H](C(=O)N1C[C@@H](C)C[C@H]1c1ncc(-c2ccc(-c3ccc(-c4cc5[nH]c([C@@H]6C[C@H](C)CN6C(=O)[C@@H](NC(=O)OC)C(C)C)nc5s4)cc3)cc2)[nH]1)C(C)C", "ng·h/mL", 1540],
  ["COC(=O)N[C@H](C(=O)N1C[C@@H](C)C[C@H]1c1ncc(-c2cccc(-c3ccc(-c4cc5[nH]c([C@@H]6C[C@H](C)CN6C(=O)[C@@H](NC(=O)OC)C(C)C)nc5s4)cc3)c2)[nH]1)C(C)C", "ng·h/mL", 490],
  ["COC(=O)N[C@H](C(=O)N1C[C@@H](C)C[C@H]1c1ncc(-c2cc3sc(-c4ccc(-c5cc6[nH]c([C@@H]7C[C@H](C)CN7C(=O)[C@@H](NC(=O)OC)C(C)C)nc6s5)cc4)cc3s2)[nH]1)C(C)C", "ng·h/mL", 460]
]}

Next up:
Ask | Give the measured AUC(0-t) at 8 h of COC(=O)N[C@H](C(=O)N1C[C@@H](C)C[C@H]1c1nc2cc(/C=C/c3ccc(-c4cc5[nH]c([C@@H]6C[C@H](C)CN6C(=O)[C@@H](NC(=O)OC)C(C)C)nc5s4)cc3)ccc2[nH]1)C(C)C .
Reply | 820
